Listing of recorded ED50 by entry.
system: Rattus norvegicus; test: Compound was tested in vivo for the inhibition of the pressor response induced by AII in normotensive pithed rats after intravenous administration.; format: functional; conditions: read-out: ID50 (the source's name)

Molecule	ED50 [mg/kg]
CCCCC(O)(C(=O)O)c1c(SC)nc(CCC)n1Cc1ccc(-c2ccccc2S(=O)(=O)NC(=O)NCc2ccccc2)cc1 (configuration not stated)	0.46
CCCc1nc(SC)c(C(O)(CC)C(=O)O)n1Cc1ccc(-c2ccccc2S(=O)(=O)NC(=O)NCc2ccccc2)cc1 (configuration not stated)	0.25
C=CC(O)(C(=O)O)c1c(SC)nc(CCC)n1Cc1ccc(-c2ccccc2S(=O)(=O)NC(=O)NCc2ccccc2)cc1 (configuration not stated)	0.2
CCCc1nc(SC)c(C(O)(C(=O)O)c2ccccc2)n1Cc1ccc(-c2ccccc2S(=O)(=O)NC(=O)NCc2ccccc2)cc1 (configuration not stated)	0.08
CCCc1nc(SC)c(C(O)(C(=O)O)C(C)C)n1Cc1ccc(-c2ccccc2S(=O)(=O)NC(=O)NCc2ccccc2)cc1 (configuration not stated)	0.49
CCCCCCC(O)(C(=O)O)c1c(SC)nc(CCC)n1Cc1ccc(-c2ccccc2S(=O)(=O)NC(=O)NCc2ccccc2)cc1 (configuration not stated)	1.03
CCCc1nc(SC)c(C(O)(Cc2ccccc2)C(=O)O)n1Cc1ccc(-c2ccccc2S(=O)(=O)NC(=O)NCc2ccccc2)cc1 (configuration not stated)	0.64
